Experimental system: SARS-CoV spike protein receptor binding domain (RBD1) (SARS-CoV, UniProt P59594 306-527)
Test details: ELISA, crude rabbit minibody
Endpoint: binding result

[[record]]
binder = "H01 rabbit minibody (scFv-rabbit Fc) (Fc fusion) scFv-Fc: QPGLTQPPSVSLAPGQTARITCGGNNIGSKSVHWYQQKPGQAPVLVVYDDSDRPSGIPERFSGSNAGNTATLTISRVEAGDEADYYCQVWDSRSDQYVFGTRTKLTVLSGGSTITSYNVYYTKLSSSGAQVTLKESGPVLVKPTETLTLTCTVSGFSLSNARMGVSWIRQPPGKALEWLAHIFSNGEKSYSTSLKSRLTISKDTSKSQVVLTMTNMDPVDTATYYCARTLDYYDSSGYLVGGAFDIWGQGTMVTVSS"
value_measured = "no binding"

[[record]]
binder = "D10 rabbit minibody (scFv-rabbit Fc) (Fc fusion) scFv-Fc: QSVVTQPPSASGSPGQTVTISCSGNSANIGGNPVNWYQQLPGTAPKLLIYSNNQRPSGVPDRFSGSKSGISASLAISGLQSEDEADYYCAAWDDSLNGVIFGGGTKLTVLSGGSTITSYNVYYTKLSSSGTQVQLVQSGAEVKKPGESLKISCKGSGYSFTSYWIGWVRQMPGKGLEWMGIIYPGDSDTRYSPSFQGQVTISADKSISTAYLQWSSLKASDTAMYYCARRHSGSYSGAFDIWGQGTMVTVSS"
value_measured = "no binding"

[[record]]
binder = "R26 rabbit minibody (scFv-rabbit Fc) (Fc fusion) scFv-Fc: SYELTQPPSVSVAPGQTATITCGGKNIESKSVHWYQQKPGQAPVLVVSDDTDRASGIPERFSGSNSGGAATLTISRVEAGDEADYYCQVWDSPSDHYVFGPGTKLTVLSGGSTITSYNVYYTKLSSSGTQVQLVESGGGVVQPGRSLRLSCAASGFTFSSYAMHWVRQAPGKGLEWVAVISYDGSNKYYADSVKGRFTISRDKAKNTLYLQMNSLRGEDTAVYYCARELSYYDSSGYLRGDWYFDLWGRGTLVTVSS"
value_measured = "no binding"

